Assay: Pharmacokinetics (PK) of CDD-2807 in mice
Type: in vivo
Settings: male, C57BL/6NJ, mouse, po, p.o. administration 5 mg/kg, plasma, read-out: MRT0-∞

{"Smiles Code": "O=C(c1ccc2[nH]nc(C#Cc3ccccc3-c3ccccc3)c2c1)N1CC2(CCCNC2)C1", "Unit Tag": "h", "MRT inf": 51.2}

----------
Assay: Pharmacokinetics (PK) of CDD-2807 in mice
Type: in vivo
Settings: male, C57BL/6NJ, mouse, po, p.o. administration 5 mg/kg, plasma
Description: Pharmacokinetics (PK) of CDD-2807 in mice. The pharmacokinetic studies (72) of CDD-2807 were performed at three doses via intraperitoneal (i.p.) injection and oral (p.o.) administration. CDD-2807 was dissolved in 10% Captisol containing 5% DMSO to prepare the solutions of 0.5 mg/mL, 2.5 mg/mL and 5.0 mg/mL. […] All the samples were analyzed by the Thermo TSQ Quantis MS coupled with a Thermo Vanquish UHPLC (San Jose, CA). […] CDD-2807 was monitored under the SRM mode coupled with a positive ESI source. […]
Quantity Measured: Cmax (nM)

{"Molecule": "O=C(c1ccc2[nH]nc(C#Cc3ccccc3-c3ccccc3)c2c1)N1CC2(CCCNC2)C1 [CDD-2807]", "Quantity Measured": "Cmax", "Test Result": 60}

----------
Experiment: Metabolic stability assay in liver microsomes (MLM)
Type: in vitro ADME, mouse
Conditions: mouse, liver microsomes, 2.0 µM, 0.5 mg protein/mL, NADPH; data >60 min is an extrapolated estimate; read-out: Metabolic stability MLM, t1/2

{"Compound": "CNC(=O)C1CCN(C2CCN(C(=O)c3ccc4[nH]nc(C#Cc5ccccc5-c5ccccc5)c4c3)C2)CC1 (centres unmarked)", "half-life at 2 µM": "25 min"}
{"Compound": "CN(C)[C@H]1CCN(C(=O)c2ccc3[nH]nc(C#Cc4ccccc4-c4ccccc4)c3c2)C1", "half-life at 2 µM": "9 min"}
{"Compound": "O=C(c1ccc2[nH]nc(C#Cc3ccccc3-c3ccccc3)c2c1)N1CC2(CCCNC2)C1", "half-life at 2 µM": "71 min"}
{"Compound": "CN(C)[C@@H]1CCN(C(=O)c2ccc3[nH]nc(C#Cc4ccccc4-c4ccccc4)c3c2)C1", "half-life at 2 µM": "7 min"}
{"Compound": "CNC(=O)CCC1CCN(C(=O)C2CCN(C3CCN(C(=O)c4ccc5[nH]nc(C#Cc6ccccc6-c6ccccc6)c5c4)C3)CC2)CC1 (centres unmarked)", "half-life at 2 µM": "14 min"}

----------
Assay: Pharmacokinetics (PK) of CDD-2807 in mice
Type: in vivo
Conditions: male, C57BL/6NJ, mouse, po, p.o. administration 50 mg/kg, plasma
Quantity Measured: AUC(0-inf) (µM·h)

{"Smiles Code": "O=C(c1ccc2[nH]nc(C#Cc3ccccc3-c3ccccc3)c2c1)N1CC2(CCCNC2)C1", "Unit Tag": "µM·h", "Test Result": 2.47}

----------
Experiment: Pharmacokinetics (PK) of CDD-2807 in mice
Assay type: in vivo
Settings: male, C57BL/6NJ, mouse, po, p.o. administration 5 mg/kg, plasma, read-out: t1/2 (converted)
Procedure: Pharmacokinetics (PK) of CDD-2807 in mice. The pharmacokinetic studies (72) of CDD-2807 were performed at three doses via intraperitoneal (i.p.) injection and oral (p.o.) administration. CDD-2807 was dissolved in 10% Captisol containing 5% DMSO to prepare the solutions of 0.5 mg/mL, 2.5 mg/mL and 5.0 mg/mL. […] All the samples were analyzed by the Thermo TSQ Quantis MS coupled with a Thermo Vanquish UHPLC (San Jose, CA). […] CDD-2807 was monitored under the SRM mode coupled with a positive ESI source. […]

{"Compound": "O=C(c1ccc2[nH]nc(C#Cc3ccccc3-c3ccccc3)c2c1)N1CC2(CCCNC2)C1 [CDD-2807]", "Unit Tag": "h", "half-life": 36.1}

----------
The following molecules each carry a recorded pKi for RET (Homo sapiens).
pKi: −log10 of the molar value.

{"Molecule": "CN(C)[C@H]1CCN(C(=O)c2ccc3[nH]nc(C#Cc4ccccc4-c4ccccc4)c3c2)C1 [CDD-2212]", "pKi": 8.70}
{"Molecule": "CNC(=O)C1CCN(C2CCN(C(=O)c3ccc4[nH]nc(C#Cc5ccccc5-c5ccccc5)c4c3)C2)CC1 (stereo not drawn) [CDD-2110]", "pKi": 8.51}
{"Molecule": "O=C(c1ccc2[nH]nc(C#Cc3ccccc3-c3ccccc3)c2c1)N1CC2(CCCNC2)C1 [CDD-2807]", "pKi": 9.52}

----------
Test: Pharmacokinetics (PK) of CDD-2807 in mice
Assay type: in vivo
Details: male, C57BL/6NJ, mouse, po, p.o. administration 5 mg/kg, plasma

{"Smiles Code": "O=C(c1ccc2[nH]nc(C#Cc3ccccc3-c3ccccc3)c2c1)N1CC2(CCCNC2)C1", "Unit Tag": "µM·h", "AUC(0-inf)": 1.85}

----------
Experiment: Metabolic stability assay in liver microsomes (HLM)
Assay type: in vitro ADME, human
Details: human, liver microsomes, NADPH with UDP-GA (2.5 mM), alamethicin; read-out: HLM, t1/2, liver microsomes with glucuronidation
Quantity Measured: half-life at 2 µM (h)

{"Molecule": "O=C(c1ccc2[nH]nc(C#Cc3ccccc3-c3ccccc3)c2c1)N1CC2(CCCNC2)C1 [CDD-2807]", "Quantity Measured": "half-life at 2 µM", "Unit Tag": "h", "Test Result": 6.47}

----------
Target: CLK1 (Homo sapiens)
Sequence (P49759 whole entry): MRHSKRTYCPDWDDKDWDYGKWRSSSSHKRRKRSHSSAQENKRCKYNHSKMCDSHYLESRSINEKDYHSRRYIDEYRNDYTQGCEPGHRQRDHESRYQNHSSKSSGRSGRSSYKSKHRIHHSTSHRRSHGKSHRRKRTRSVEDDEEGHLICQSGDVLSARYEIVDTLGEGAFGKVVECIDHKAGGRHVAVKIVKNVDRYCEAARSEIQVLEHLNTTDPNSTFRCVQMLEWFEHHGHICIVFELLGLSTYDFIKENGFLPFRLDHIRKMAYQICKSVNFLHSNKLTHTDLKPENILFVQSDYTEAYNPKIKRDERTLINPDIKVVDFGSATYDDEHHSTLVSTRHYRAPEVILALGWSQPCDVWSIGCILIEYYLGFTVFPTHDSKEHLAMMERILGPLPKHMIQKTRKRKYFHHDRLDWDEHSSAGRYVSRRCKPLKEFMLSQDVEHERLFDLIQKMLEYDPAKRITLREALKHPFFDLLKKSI
Experiment: NanoBRET target engagement intracellular kinase assay
Assay type: cell-based
Parameters: host or cells: HEK293 (HEK293T cultured)
Conditions: selectivity vs STK33
Each entry below lists one item and its recorded Fold NanoBRET IC50 CLK1 over STK33 (in parentheses) value.
Quantity Measured: Fold NanoBRET IC50 CLK1 over STK33 (in parentheses)

{"Molecule": "CN(C)[C@@H]1CCN(C(=O)c2ccc3[nH]nc(C#Cc4ccccc4-c4ccccc4)c3c2)C1", "Test Result": "23 X"}
{"Molecule": "O=C(c1ccc2[nH]nc(C#Cc3ccccc3-c3ccccc3)c2c1)N1CC2(CCCNC2)C1", "Test Result": "13 X"}
{"Molecule": "CNC(=O)CCC1CCN(C(=O)C2CCN(C3CCN(C(=O)c4ccc5[nH]nc(C#Cc6ccccc6-c6ccccc6)c5c4)C3)CC2)CC1 (centres unmarked)", "Test Result": "40 X"}
{"Molecule": "CN(C)[C@H]1CCN(C(=O)c2ccc3[nH]nc(C#Cc4ccccc4-c4ccccc4)c3c2)C1", "Test Result": "3 X"}
{"Molecule": "CNC(=O)C1CCN(C2CCN(C(=O)c3ccc4[nH]nc(C#Cc5ccccc5-c5ccccc5)c4c3)C2)CC1 (centres unmarked)", "Test Result": "32 X"}

----------
Test: Pharmacokinetics (PK) of CDD-2807 in mice
Assay type: in vivo
Conditions: male, C57BL/6NJ, mouse, ip, i.p. injection 25 mg/kg, plasma

{"Smiles Code": "O=C(c1ccc2[nH]nc(C#Cc3ccccc3-c3ccccc3)c2c1)N1CC2(CCCNC2)C1", "Cmax [µM]": 11.9}

----------
Assay: Pharmacokinetics (PK) of CDD-2807 in mice
Format: in vivo
Details: male, C57BL/6NJ, mouse, ip, i.p. injection 25 mg/kg, plasma

{"Smiles Code": "O=C(c1ccc2[nH]nc(C#Cc3ccccc3-c3ccccc3)c2c1)N1CC2(CCCNC2)C1", "Tmax": "19.8 min"}

----------
UniProt P49759: reported Ki for various molecules.

{"Smiles Code": "O=C(c1ccc2[nH]nc(C#Cc3ccccc3-c3ccccc3)c2c1)N1CC2(CCCNC2)C1", "Ki": "0.0031 µM"}
{"Smiles Code": "CN(C)[C@@H]1CCN(C(=O)c2ccc3[nH]nc(C#Cc4ccccc4-c4ccccc4)c3c2)C1", "Ki": "0.0388 µM"}

----------
Assay: Pharmacokinetics (PK) of CDD-2807 in mice
Format: in vivo
Settings: male, C57BL/6NJ, mouse, po, p.o. administration 50 mg/kg, plasma
Quantity Measured: Cmax (nM)

{"Smiles Code": "O=C(c1ccc2[nH]nc(C#Cc3ccccc3-c3ccccc3)c2c1)N1CC2(CCCNC2)C1", "Test Result": 180}

----------
Assay: Pharmacokinetics (PK) of CDD-2807 in mice
Assay type: in vivo
Conditions: male, C57BL/6NJ, mouse, ip, i.p. injection 5 mg/kg, plasma

{"Compound": "O=C(c1ccc2[nH]nc(C#Cc3ccccc3-c3ccccc3)c2c1)N1CC2(CCCNC2)C1 [CDD-2807]", "Unit Tag": "min", "Tmax": 19.8}

----------
Test: Pharmacokinetics (PK) of CDD-2807 in mice
Assay type: in vivo
Conditions: male, C57BL/6NJ, mouse, po, p.o. administration 5 mg/kg, plasma

{"Compound": "O=C(c1ccc2[nH]nc(C#Cc3ccccc3-c3ccccc3)c2c1)N1CC2(CCCNC2)C1 [CDD-2807]", "AUC(0-t)": "0.71 µM·h"}
